- experiment: qHTS of pediatric cancer cell lines to identify multiple opportunities for drug repurposing: Primary screen for BT-12 cells (AID 1347101); also: nearly all actives have a fitted effect of over 25% in size
- experimental parameters: BT-12 viability, CellTiter-Glo luminescence, 48 h; series mostly up to 57.3 µM
Results filed as inconclusive are left out. Calls of active or inactive are those of the source. Calls follow the shape of the dose curve; as a rule, active = well fitted cell-killing curve with a large enough effect; inconclusive = small, poorly fitted or top-dose-only effect; inactive = flat fitted curve, though single readings scatter.
// one of yes (1) = active, no (0) = inactive, no free text

Consider the worked cases shown below.
CC(C)(C(=O)c1cccnc1)c1cccnc1 ... no (0)
Cc1c(N(C)CS(=O)(=O)O)c(=O)n(-c2ccccc2)n1C ... no (0)
CC(=O)N(O)CCCCCNC(=O)CCC(=O)N(O)CCCCCNC(=O)CCC(=O)N(O)CCCCCN ... yes (1)
O=C1OCCN1/N=C/c1ccc([N+](=O)[O-])o1 ... no (0)
Oc1ccc(Cl)cc1Sc1cc(Cl)ccc1O ... yes (1)
OC[C@@H](O)[C@@H](O[C@@H]1O[C@H](CO)[C@H](O)[C@H](O)[C@H]1O)[C@H](O)[C@@H](O)CO ... no (0)

What did this assay record as the result for O=c1ccc2ccccc2o1 ?
no (0)

What did this assay record as the result for CCOc1ccc(NC(=O)CC(C)O)cc1 (centres undefined) ?
no (0)

What did this assay record as the result for CC[N+](CC)(CCNC(=O)C(=O)NCC[N+](CC)(CC)Cc1ccccc1Cl)Cc1ccccc1Cl ?
no (0)

What did this assay record as the result for CC(=O)Oc1ccc(C(=C2CCCCC2)c2ccc(OC(C)=O)cc2)cc1 ?
no (0)

---

- Tested on: ECU
- experiment: qHTS profiling for inhibitors of Plasmodium falciparum proliferation (AID 504749); also: nearly all actives have a fitted effect of over 60% in size
- experimental parameters: P. falciparum in erythrocytes, SYBR Green DNA, 72 h; series mostly up to 28.7 µM
Results filed as inconclusive are left out. Activity calls are given as the source filed them. Calls come from the whole dose curve; as a rule, active = well fitted inhibition curve with a large enough effect; inconclusive = small, poorly fitted or top-dose-only effect; inactive = flat fitted curve, though single readings scatter.
// one of TRUE = active, FALSE = inactive, no free text

What did this assay record as the result for O=C(Nc1ccc(Cl)c(Cl)c1)C1CC1 ?
FALSE

What did this assay record as the result for C[C@H]1C[C@H]2[C@@H]3CCC4=CC(=O)C=C[C@]4(C)[C@@]3(Cl)[C@@H](O)C[C@]2(C)[C@@]1(O)C(=O)CO ?
FALSE

---

- Tested on: CP297
- experiment: qHTS profiling for inhibitors of Plasmodium falciparum proliferation (AID 504749); also: nearly all actives have a fitted effect of over 60% in size
- experimental parameters: P. falciparum in erythrocytes, SYBR Green DNA, 72 h; series mostly up to 28.7 µM
Records with an inconclusive call do not appear. Activity calls are given as the source filed them. Calls follow the shape of the dose curve; as a rule, active = well fitted inhibition curve with a large enough effect; inconclusive = small, poorly fitted or top-dose-only effect; inactive = flat fitted curve, though single readings scatter.
metric: outcome

CCCCCC=CCC=CCCCCCCCC(=O)OCC ... inactive
O=C(N/N=C/c1ccccc1O)c1ccncc1 ... inactive
C[C@@H](CN(C)C)CN1c2ccccc2Sc2ccccc21 ... inactive

---

- System: CP250
- experiment: qHTS profiling for inhibitors of Plasmodium falciparum proliferation (AID 504749); also: nearly all actives have a fitted effect of over 60% in size
- experimental parameters: P. falciparum in erythrocytes, SYBR Green DNA, 72 h; series mostly up to 28.7 µM
Results filed as inconclusive are left out. Activity calls are given as the source filed them. Calls follow the shape of the dose curve; as a rule, active = well fitted inhibition curve with a large enough effect; inconclusive = small, poorly fitted or top-dose-only effect; inactive = flat fitted curve, though single readings scatter.
// one of T (active), F (inactive), no free text

CCCCCC=CCC=CCCCCCCCC(=O)OCC ... F
O=C1OC(c2ccc(O)cc2)(c2ccc(O)cc2)c2ccccc21 ... F
O=C(O)CNC(=O)c1ccccc1 ... F
CC(=O)Oc1ccc(C(=C2CCCCC2)c2ccc(OC(C)=O)cc2)cc1 ... F

What did this assay record as the result for O=C1[C@H]2CCCC[C@H]2C(=O)N1CCCCN1CCN(c2nsc3ccccc23)CC1 ?
F

What did this assay record as the result for Oc1c(I)cc(Cl)c2cccnc12 ?
T

What did this assay record as the result for Nc1ccc(C(=O)Nc2ccccc2N)cc1 ?
F

What did this assay record as the result for CN(C(=O)CN(CCO)CC(=O)N(C)C(C)(C)Cc1ccccc1)C(C)(C)Cc1ccccc1 ?
F

What did this assay record as the result for C#C[C@]1(OC(C)=O)CC[C@H]2[C@@H]3CCC4=C[C@@H](OC(C)=O)CC[C@@H]4[C@H]3CC[C@@]21C ?
F

What did this assay record as the result for CCOc1ccc(NC(=O)CC(C)O)cc1 (stereo not given) ?
F

What did this assay record as the result for NCCC(O)(P(=O)(O)O)P(=O)(O)O ?
F

What did this assay record as the result for C[C@H]1[C@H](NC(=O)/C(=N/OC(C)(C)C(=O)O)c2csc(N)n2)C(=O)N1S(=O)(=O)O (stereo in doubt) ?
F

What did this assay record as the result for OC(CCN1CCCCC1)(c1ccccc1)c1ccccc1 ?
F

---

- experiment: Cell Viability - LYMP2-023 (AID 975);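 also: cellular ATP measured by luciferase luminescence as viability proxy; cells exposed to compound for 24 hours at 37 °C; plate controls were DMSO only for no effect and 92 µM tetraoctylammonium bromide control for full effect; nearly all actives have a fitted effect of over 55% in size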
- experimental parameters: LYMP2-023 lymphoblastoid cell viability; series mostly up to 92.2 µM
Results filed as inconclusive are left out. The source made the active and inactive calls. Calls come from the whole dose curve; as a rule, active = well fitted cell-killing curve with a large enough effect; inconclusive = small, poorly fitted or top-dose-only effect; inactive = flat fitted curve, though single readings scatter.
metric: outcome

Nc1ccc(C(=O)O)cc1 ... inactive
CCCCCCc1ccc(O)cc1O ... inactive
CC/C(=C(/CC)c1ccc(O)cc1)c1ccc(O)cc1 ... inactive

---

- target system: Glucocorticoid receptor (Homo sapiens) (UniProt P04150)
- Sequence (P04150 whole entry, looked up): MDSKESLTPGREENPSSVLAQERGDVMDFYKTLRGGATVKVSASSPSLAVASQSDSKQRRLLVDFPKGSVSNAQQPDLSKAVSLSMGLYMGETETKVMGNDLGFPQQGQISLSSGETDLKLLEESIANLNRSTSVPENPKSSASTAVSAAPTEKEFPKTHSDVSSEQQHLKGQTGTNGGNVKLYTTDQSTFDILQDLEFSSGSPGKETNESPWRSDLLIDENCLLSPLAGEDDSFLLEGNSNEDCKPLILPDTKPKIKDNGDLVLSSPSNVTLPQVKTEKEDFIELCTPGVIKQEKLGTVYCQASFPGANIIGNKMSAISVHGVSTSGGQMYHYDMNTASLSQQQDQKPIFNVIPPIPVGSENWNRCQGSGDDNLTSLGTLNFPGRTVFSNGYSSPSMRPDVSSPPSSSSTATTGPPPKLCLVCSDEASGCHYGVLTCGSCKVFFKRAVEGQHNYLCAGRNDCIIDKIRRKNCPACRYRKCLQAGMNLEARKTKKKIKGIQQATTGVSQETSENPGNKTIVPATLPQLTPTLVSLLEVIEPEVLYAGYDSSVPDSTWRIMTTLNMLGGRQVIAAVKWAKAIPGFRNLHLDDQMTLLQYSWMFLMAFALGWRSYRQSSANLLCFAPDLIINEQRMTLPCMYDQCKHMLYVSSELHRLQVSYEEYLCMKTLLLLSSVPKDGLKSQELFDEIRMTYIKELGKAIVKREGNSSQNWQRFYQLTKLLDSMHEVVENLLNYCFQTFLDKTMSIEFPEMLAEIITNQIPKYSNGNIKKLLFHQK
- experiment: GR-GFP Redistribution (AID 450)
- experimental parameters: U2OS GR-GFP nuclear translocation, laser cytometry, 2 h
Active and inactive are the calls of the source.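 Rule for the calls: active = compounds whose dose series gives a full or clear partial fitted curve of increased nuclear translocation; inconclusive = weak partial curve or effect only at the top dose; inactive = no dose-dependent translocation response.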
// one of active, inactive, no free text

Consider the worked cases shown below.
Nc1cc(Cl)c(NC2=NCCN2)c(Cl)c1 ... inactive
Oc1ccc(O)cc1 ... inactive
CN1CCN(C(c2ccccc2)c2ccccc2)CC1 ... inactive
CC1(C)O[C@@H]2C[C@H]3[C@@H]4C[C@H](F)C5=CC(=O)CC[C@]5(C)[C@H]4[C@@H](O)C[C@]3(C)[C@]2(C(=O)CO)O1 ... active

What did this assay record as the result for CCCCOc1cc(C(=O)NCCN(CC)CC)c2ccccc2n1 ?
inactive

What did this assay record as the result for CC(C)(C(=O)c1cccnc1)c1cccnc1 ?
inactive

What did this assay record as the result for CCCCCCC[N+](CC)(CC)CCCCc1ccc(Cl)cc1 ?
inactive

What did this assay record as the result for NC(=NCCCCCCN=C(N)/N=C(\N)Nc1ccc(Cl)cc1)/N=C(\N)Nc1ccc(Cl)cc1 ?
inactive

What did this assay record as the result for CCCC(=O)Nc1ccc(OCC(O)CNC(C)C)c(C(C)=O)c1 (configuration not stated) ?
inactive

---

- Test system: CP266
- experiment: qHTS profiling for inhibitors of Plasmodium falciparum proliferation (AID 504749); also: nearly all actives have a fitted effect of over 60% in size
- experimental parameters: P. falciparum in erythrocytes, SYBR Green DNA, 72 h; series mostly up to 28.7 µM
Results filed as inconclusive are left out. Activity calls are given as the source filed them. Calls come from the whole dose curve; as a rule, active = well fitted inhibition curve with a large enough effect; inconclusive = small, poorly fitted or top-dose-only effect; inactive = flat fitted curve, though single readings scatter.
// one of Y for active, N for inactive, no free text

Consider the worked cases shown below.
Nc1cc(Cl)c(NC2=NCCN2)c(Cl)c1 ... N
NCCC(O)(P(=O)(O)O)P(=O)(O)O ... N
CCCCCCCCCCCCCCCC[N+](C)(C)CC ... Y

What did this assay record as the result for COc1cc(NS(C)(=O)=O)ccc1Nc1c2ccccc2nc2ccccc12 ?
Y

What did this assay record as the result for NCCc1ccn[nH]1 ?
N

What did this assay record as the result for CC(C)NC[C@@H](O)COc1cccc2ccccc12 ?
N

What did this assay record as the result for CCCCOc1ccc(C(=O)CCN2CCCCC2)cc1 ?
N

What did this assay record as the result for Cc1c(N(C)CS(=O)(=O)O)c(=O)n(-c2ccccc2)n1C ?
N

What did this assay record as the result for CC(C)(Oc1ccc(Cl)cc1)C(=O)O ?
N

What did this assay record as the result for O=C(O)c1cc2cc(Cc3cccnc3)ccc2o1 ?
N

What did this assay record as the result for COc1cccc2c1C(=O)c1c(O)c3c(c(O)c1C2=O)C[C@@](O)(C(C)=O)C[C@@H]3O[C@H]1C[C@H](N)[C@H](O)[C@H](C)O1 ?
Y

What did this assay record as the result for CCCCCCCCCCCCCCCCCC(=O)OCC(O)CO (centres undefined) ?
N

What did this assay record as the result for Oc1ccc(Cl)cc1Sc1cc(Cl)ccc1O ?
N

What did this assay record as the result for CCCOC(C(=O)OC1CCN(C)CC1)(c1ccccc1)c1ccccc1 ?
N

What did this assay record as the result for CC(=O)Nc1c(I)cc(I)c(C(=O)O)c1I ?
N

What did this assay record as the result for CCCCCCCCCCOCC(O)CN (centres undefined) ?
N

What did this assay record as the result for CCCCC1=NC2(CCCC2)C(=O)N1Cc1ccc(-c2ccccc2-c2nn[nH]n2)cc1 ?
N

What did this assay record as the result for CCCN1CCCC[C@H]1C(=O)Nc1c(C)cccc1C ?
N

What did this assay record as the result for CCOc1ccc(NC(=O)CC(C)O)cc1 (centres undefined) ?
N

---

- target system: Cytochrome P450 2D6 (Homo sapiens)
- experiment: Cytochrome P450 family 2 subfamily D member 6 (CYP2D6) small molecule antagonists: luciferase biochemical (cell-free) qHTS assay (AID 1645840); also: nearly all actives have a fitted effect of over 55% in size
- experimental parameters: P450-Glo CYP2D6 enzyme, luciferin luminescence, 1 h; series mostly up to 57.4 µM
Records with an inconclusive call do not appear. Active and inactive are the calls of the source. The call rests on the fitted dose curve; in most records, active means well fitted inhibition curve with a large enough effect in the repeat runs; inconclusive means weak or mixed curves; inactive means flat fitted curve, though single readings scatter.
// one of TRUE = active, FALSE = inactive, no free text

CN(C)CCOc1ccccc1Cc1ccccc1 ... TRUE

What did this assay record as the result for O=C(Nc1ccc(Cl)c(Cl)c1)C1CC1 ?
FALSE

What did this assay record as the result for Cc1ccccc1C(=O)Nc1ccc(C(=O)N2CCCC(N(C)C)c3ccccc32)cc1 (stereo unspecified) ?
FALSE

What did this assay record as the result for COc1ccc(OC)c(C(O)CNC(=O)CN)c1 (stereo unspecified) ?
FALSE

What did this assay record as the result for CC(=O)O[C@]1(C(C)=O)CC[C@H]2[C@@H]3C[C@H](C)C4=CC(=O)CC[C@]4(C)[C@H]3CC[C@@]21C ?
FALSE

What did this assay record as the result for CN(C/C=C/c1ccccc1)Cc1cccc2ccccc12 ?
TRUE

What did this assay record as the result for Cc1ccc(C(=O)C(C)CN2CCCCC2)cc1 (stereo unspecified) ?
TRUE

What did this assay record as the result for CN(C(=O)CN(CCO)CC(=O)N(C)C(C)(C)Cc1ccccc1)C(C)(C)Cc1ccccc1 ?
TRUE

What did this assay record as the result for Nc1ccc(C(=O)Nc2ccccc2N)cc1 ?
FALSE

What did this assay record as the result for COc1cc2c(cc1OC)C(C(C(=O)N(CCc1ccc(OC)c(OC)c1OC)CCc1ccc(OC)c(OC)c1OC)c1ccccc1)=NCC2 (stereo unspecified) ?
TRUE

What did this assay record as the result for CC(=O)OCC(=O)[C@@]1(OC(C)=O)[C@@H](C)C[C@H]2[C@@H]3C[C@H](F)C4=CC(=O)C=C[C@]4(C)[C@@]3(F)[C@@H](O)C[C@@]21C ?
FALSE

What did this assay record as the result for Cc1c(C(N)=O)cc([N+](=O)[O-])cc1[N+](=O)[O-] ?
FALSE

What did this assay record as the result for O=c1[nH]c(=O)n([C@H]2C[C@H](O)[C@@H](CO)O2)cc1C(F)(F)F ?
FALSE

What did this assay record as the result for CC(=O)Oc1ccc(C(c2ccc(OC(C)=O)cc2)c2ccccn2)cc1 ?
TRUE
